# Tested on: CD2F1 mice, L1210 leukemia ip, survival T/C
# PROTOCOL: NCI In Vivo Anticancer Drug Screen. Data for tumor model L1210 Leukemia (intraperitoneal) in CD2F1 (CDF1) mice
# APPLIED_CONDITIONS: endpoint: mean survival time; dose: 150.0 mg/kg/injection; schedule: Q01DX001 (ip); vehicle: saline; higher = longer survival
Toxic doses and inconclusive results are not listed.
RECORDED_ENDPOINT: T/C

Check out these entries, answers already filled in.
[[record]]
compound = "CCCCCCC(C)NCCOC(=O)c1ccccc1 (stereo not drawn)"
recorded_endpoint = "T/C"
measurement = "102 % of control"

[[record]]
compound = "CCN(CC)CCCC(C)Nc1nnc2c(=O)n(C)c(=O)n(C)c2n1 (stereo not drawn)"
recorded_endpoint = "T/C"
measurement = "93 % of control"

[[record]]
compound = "CCOC(=O)C(C)(C)C(OP(=O)(OCC)OCC)=C(C)C"
recorded_endpoint = "T/C"
measurement = "97 % of control"


Recorded T/C for `NNc1nc(=O)[nH]nc1SCc1ccccc1` , please?
88 % of control

Same lookup for CC1(CO)C2C=CC(C2)C1(C)CO (stereo not drawn) , please.
105 % of control

Same lookup for `CC(C)CCC(C(=O)O)C(=O)O` , please.
102 % of control

Same lookup for CCCCCCCCC1C(CCCCCCCC(=O)N2CCCC2)C2(Cl)C(Cl)=C(Cl)C1(Cl)C2(Cl)Cl (stereo not drawn) , please.
104 % of control
